Tested on: ATP;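 also: ATP exposure 15 min at 22 °C before imaging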
Test: switch fluorescence ratio, 500 uM ATP over buffer (Cy3 cluster intensity, sum of 5 cycles each) (fold (ratio)); higher = stronger signal-on switching upon ATP binding; sequences stand for … in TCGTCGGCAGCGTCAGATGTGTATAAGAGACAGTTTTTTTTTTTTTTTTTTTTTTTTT…TC
Details: aptamer strand: ATP DNA aptamer (quencher-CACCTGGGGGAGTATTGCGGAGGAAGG + anchor), 100 nM annealed; ATP concentration: 500 uM
REPORTED_METRIC: switch fluorescence ratio

• GGGATTTACG = 1.02
• GCGAGATCCG = 1.01
• TTAAGGACTT = 1.01
• GCTTTTAAAG = 1.04
• CCGTTTTCGG = 0.952
• TTCCTTGGAT = 1.02
• TTTGCGTGCA = 0.975
• GTGGCAAAAG = 1.02
• TCGTGGTCTG = 0.999
• AGAGAGCAAG = 1.07
• GCTTATGCGG = 0.949
• GAAGGAAGGT = 1
• AGGATAGGAG = 0.996
• AAGGCGAGTA = 0.997
• CGGGGGGCCG = 0.995
• AGATTTAAGT = 0.985
• TGTGAGTTTA = 0.978
• TTGAGGGGCG = 0.996
• CAGCGGCGGA = 0.981
• AGGATAGCAA = 1.3

Where these numbers come from: the supplement of paper PMC10126150
